Molecular target: recombinant human p38α (Homo sapiens, UniProt Q16539)
Sequence (Q16539 whole entry): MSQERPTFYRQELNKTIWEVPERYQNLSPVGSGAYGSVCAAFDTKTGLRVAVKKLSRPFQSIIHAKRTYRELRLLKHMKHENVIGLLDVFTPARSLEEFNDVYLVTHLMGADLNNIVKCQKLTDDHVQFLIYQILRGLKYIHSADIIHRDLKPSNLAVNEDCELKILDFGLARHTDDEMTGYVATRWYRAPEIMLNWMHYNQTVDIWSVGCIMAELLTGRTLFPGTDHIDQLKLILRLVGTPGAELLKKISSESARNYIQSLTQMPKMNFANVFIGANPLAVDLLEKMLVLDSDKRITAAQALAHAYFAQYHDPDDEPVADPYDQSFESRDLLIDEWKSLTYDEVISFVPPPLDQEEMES
Test: Purified and activated recombinant human p38α HTRF assay
Details: 1 nM p38α, 50 μM ATP, 100 nM GST-ATF2-Avitag, read-out: p3a IC550
// values below are reported IC50

COMPOUND	IC50 [nM]
Cc1ccc2c(NC3CC3)noc2c1-c1cc2cnn(-c3cc(F)ccc3F)c2n(C)c1=O [Example 6]	8.9
Cc1ccc2c(NC3CC3)noc2c1-c1cc2cnn(-c3ccc(F)cc3F)c2n(C)c1=O [Example 8]	4.4
CNc1noc2c(-c3cc4cnn(-c5c(F)cccc5F)c4n(C)c3=O)c(C)ccc12 [Example 5]	6.7
CNc1noc2c(-c3nc4cnn(-c5ccc(F)cc5F)c4n(C)c3=O)c(C)ccc12 [Example 2]	28.5
CCn1c(=O)c(-c2c(C)ccc3c(NC4CC4)noc23)cc2cnn(-c3ccccc3F)c21 [Example 7]	2
Cc1ccc2c(NC3CC3)noc2c1-c1cc2cnn(-c3c(F)cccc3F)c2n(C)c1=O [Example 1]	8.1

====

// values below are reported IC50
Test system: secreted IL-8 by whole blood activated with TNF-α
Experiment: Inhibition of TNF-α induced IL-8 in 50% human whole blood
Type: cell-based
Conditions: 50% human whole blood, TNF-α (1 nM final) induced IL-8, 16-18 hours; read-out: WB TNF/IL8 IC50

SAMPLE SMILES	READING UNIT	IC50
Cc1ccc2c(NC3CC3)noc2c1-c1nc2cnn(-c3ccc(F)cc3F)c2n(C)c1=O	nM	8.9
CNc1noc2c(-c3cc4cnn(-c5c(F)cccc5F)c4n(C)c3=O)c(C)ccc12	nM	2.7
CCn1c(=O)c(-c2c(C)ccc3c(NC4CC4)noc23)cc2cnn(-c3ccccc3F)c21	nM	1.3
Cc1ccc2c(NC3CC3)noc2c1-c1cc2cnn(-c3cc(F)ccc3F)c2n(C)c1=O	nM	1.6

====

Test system: secreted IL-8 by whole blood activated with TNF-α
Assay: Inhibition of TNF-α induced IL-8 in 50% human whole blood
Assay type: cell-based
Settings: 50% human whole blood, TNF-α (1 nM final) induced IL-8, 16-18 hours; read-out: WB TNF/IL8 IC50
// values below are reported IC50

SAMPLE SMILES	READING UNIT	IC50
Cc1ccc2c(NC3CC3)noc2c1-c1nc2cnn(-c3c(F)cccc3F)c2n(C)c1=O	nM	8
Cc1ccc2c(NC3CC3)noc2c1-c1cc2cnn(-c3c(F)cccc3F)c2n(C)c1=O	nM	1.1
Cc1ccc2c(NC3CC3)noc2c1-c1cc2cnn(-c3ccc(F)cc3F)c2n(C)c1=O	nM	1.8

Reference for the values: patent US8435987B2
